- targetSystem: CDK2 (human)
- experimentalProtocol: Cell-Based Assay
- experimentalContext: saos-2
quantityName: log10 IC50 (log10 of the value in nM)

{"columns": ["structure", "targetSystem", "quantityName", "measurement"],
 "data": [
  ["Cc1cc(Nc2nccc(-c3c(C)[nH]c(C#N)c3C)n2)ccc1Cl", "CDK2 (human)", "log10 IC50", 3.77],
  ["Cc1[nH]c(CN2CCN(C)CC2)c(C)c1-c1ccnc(Nc2ccc(F)cc2)n1", "CDK2 (human)", "log10 IC50", 4.15],
  ["Cc1[nH]c(C#N)c(C)c1-c1ccnc(Nc2ccc(I)cc2)n1", "CDK2 (human)", "log10 IC50", 2.88],
  ["Cc1c[nH]c(C)c1-c1ccnc(Nc2ccc(C(F)(F)F)cc2)n1", "CDK2 (human)", "log10 IC50", 4.23],
  ["Cc1[nH]c(Br)c(C)c1-c1ccnc(Nc2cccc([N+](=O)[O-])c2)n1", "CDK2 (human)", "log10 IC50", 4.09],
  ["CCN(CC)Cc1[nH]c(C)c(-c2ccnc(Nc3ccc(F)cc3)n2)c1C", "CDK2 (human)", "log10 IC50", 3.21],
  ["Cc1[nH]c(C#N)c(C)c1-c1ccnc(Nc2ccc(N(C)C)cc2)n1", "CDK2 (human)", "log10 IC50", 3.18],
  ["Cc1[nH]c([N+](=O)[O-])c(C)c1-c1ccnc(Nc2ccc(N(C)C)cc2)n1", "CDK2 (human)", "log10 IC50", 3.42],
  ["Cc1ccc(Nc2nccc(-c3c(C)[nH]c(C#N)c3C)n2)cc1F", "CDK2 (human)", "log10 IC50", 3.35],
  ["Cc1[nH]c(C#N)c(C)c1-c1ccnc(Nc2cccc(O)c2)n1", "CDK2 (human)", "log10 IC50", 2.95],
  ["Cc1[nH]c(C#N)c(C)c1-c1ccnc(Nc2ccc(C(F)(F)F)cc2)n1", "CDK2 (human)", "log10 IC50", 3.53],
  ["Cc1[nH]c(CN(C)C)c(C)c1-c1ccnc(Nc2ccc(F)cc2)n1", "CDK2 (human)", "log10 IC50", 2.85],
  ["Cc1ccc(Nc2nccc(-c3c(C)[nH]c(C#N)c3C)n2)cc1I", "CDK2 (human)", "log10 IC50", 3.49]
]}
